system: NCI-H1876 complex spheroid growth, % test/control; assay: Anticancer human tumor NCI-H1876 cell line growth inhibition [Asc]; conditions: second compound 0.3 µM; first compound 0.1 µM; stronger effect = lower value;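 also: compound exposure lasted 7 days starting three days after seeding; 100% = DMSO vehicle control wells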
Parameter: viability, T/C (%)

[
  {
    "Molecule": "C#Cc1c(F)ccc2cc(O)cc(-c3ncc4c(N5CC6CCC(C5)N6)nc(OCC56CCCN5CC(F)C6)nc4c3F)c12 (configuration not stated) + CCN1C(C(=O)NC23CCC(C(=O)O)(CC2)CC3)C(c2cccc(Cl)c2F)C2(C(=O)Nc3cc(Cl)ccc32)C12CCCCC2",
    "Reported": 106
  },
  {
    "Molecule": "COc1c(OCCCN2CCOCC2)ccc2c3n(c(=NC(=O)c4cnc(N)nc4)nc12)CCN3 + CCN1C(C(=O)NC23CCC(C(=O)O)(CC2)CC3)C(c2cccc(Cl)c2F)C2(C(=O)Nc3cc(Cl)ccc32)C12CCCCC2",
    "Reported": 70.6
  }
]
